Tested on: 171881-019-R-J1-PDC tumor spheroids, viability
METHOD DESCRIPTION: Anticancer human tumor 171881-019-R-J1-PDC patient-derived invasive breast carcinoma cell line growth inhibition [GQUAD]; active = viability on the fitted dose curve at most 10% of control; inactive = the rest
RUN PARAMETERS: second compound 0.316 µM; first compound 0.316 µM; spheroids with HUVEC and MSC
// one of label 1 for active, label 0 for inactive, no free text

| COMPOUND | CAT |
| --- | --- |
| CC(C)(O)C1CCC(Nc2ccc3ncc(-c4cccc(C(F)(F)F)c4)n3n2)CC1 (stereo not given) + Cc1cnc(CNC(=O)c2c(=O)c3ccc(N4CCCN(C)CC4)nc3n3c2sc2ccccc23)cn1 | label 0 |

Exam item: Recorded test call requested for CC1COCCN1c1cc(C2(S(C)(=N)=O)CC2)nc(-c2ccnc3[nH]ccc23)n1 (stereo not given) + Cc1[nH]c2ccc(F)cc2c1-c1nc2c3cccnc3c3ncccc3c2[nH]1
Marked response: label 0

Exam item: Recorded test call requested for C#Cc1c(F)ccc2cc(O)cc(-c3ncc4c(N5CC6CCC(C5)N6)nc(OCC56CCCN5CC(F)C6)nc4c3F)c12 (stereo not given) + CN(C)c1ccc(Nc2c3ccc(NC(=O)CCN4CCCC4)cc3nc3cc(NC(=O)CCN4CCCC4)ccc23)cc1
Marked response: label 0

Exam item: Recorded test call requested for CCCS(=O)(=O)Nc1ccc(F)c(C(=O)c2c[nH]c3ncc(-c4ccc(Cl)cc4)cc23)c1F + Cc1[nH]c2ccc(F)cc2c1-c1nc2c3cccnc3c3ncccc3c2[nH]1
Marked response: label 0

Exam item: Recorded test call requested for COc1ncnc(C2CC2)c1-c1ncc2cnn(Cc3ccc(-c4nc(C(F)(F)F)cn4C(C)C)cc3)c2n1 + Cc1cnc(CNC(=O)c2c(=O)c3ccc(N4CCCN(C)CC4)nc3n3c2sc2ccccc23)cn1
Marked response: label 0

Exam item: Recorded test call requested for CC(C)n1c(=O)n(C)c2cnc3cc(F)c(-c4ccc(OCCCN5CCCCC5)nc4)cc3c21 + CN(C)c1ccc(Nc2c3ccc(NC(=O)CCN4CCCC4)cc3nc3cc(NC(=O)CCN4CCCC4)ccc23)cc1
Marked response: label 0

Exam item: Recorded test call requested for CCCS(=O)(=O)Nc1ccc(F)c(C(=O)c2c[nH]c3ncc(-c4ccc(Cl)cc4)cc23)c1F + CN(C)c1ccc(Nc2c3ccc(NC(=O)CCN4CCCC4)cc3nc3cc(NC(=O)CCN4CCCC4)ccc23)cc1
Marked response: label 0

Exam item: Recorded test call requested for Cc1[nH]c2ccccc2c1CCNCc1ccc(/C=C/C(=O)NO)cc1 + Cc1[nH]c2ccc(F)cc2c1-c1nc2c3cccnc3c3ncccc3c2[nH]1
Marked response: label 1

Exam item: Recorded test call requested for COc1cccc2c1C(=O)c1c(O)c3c(c(O)c1C2=O)CC(O)(C(=O)CO)CC3OC1CC(N)C(O)C(C)O1 (stereo not given) + Cc1cnc(CNC(=O)c2c(=O)c3ccc(N4CCCN(C)CC4)nc3n3c2sc2ccccc23)cn1
Marked response: label 0

====

Property: viability, T/C; scope: individual molecules
Test system: 171881-019-R-J1-PDC tumor spheroids, viability
METHOD DESCRIPTION: Anticancer human tumor 171881-019-R-J1-PDC cell line growth inhibition [GQUAD];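 note: spheroids exposed to compounds for 7 days; 100% = DMSO vehicle control viability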
RUN PARAMETERS: second compound 0.0316 µM; first compound 0.316 µM; active compounds read low; spheroids with HUVEC and MSC

| MOLECULE | viability, T/C |
| --- | --- |
| COc1ncnc(C2CC2)c1-c1ncc2cnn(Cc3ccc(-c4nc(C(F)(F)F)cn4C(C)C)cc3)c2n1 + Cc1[nH]c2ccc(F)cc2c1-c1nc2c3cccnc3c3ncccc3c2[nH]1 | 97.8% |

Exam item: Let me know recorded viability, T/C for CC(C)n1c(=O)n(C)c2cnc3cc(F)c(-c4ccc(OCCCN5CCCCC5)nc4)cc3c21 + Cc1[nH]c2ccc(F)cc2c1-c1nc2c3cccnc3c3ncccc3c2[nH]1 , thanks.
Marked response: 95.4%

Exam item: Let me know recorded viability, T/C for COc1cccc2c1C(=O)c1c(O)c3c(c(O)c1C2=O)CC(O)(C(=O)CO)CC3OC1CC(N)C(O)C(C)O1 (stereo not given) + Cc1cnc(CNC(=O)c2c(=O)c3ccc(N4CCCN(C)CC4)nc3n3c2sc2ccccc23)cn1 , thanks.
Marked response: 39%

Exam item: Let me know recorded viability, T/C for O=C(c1cc(Cc2n[nH]c(=O)c3ccccc23)ccc1F)N1CCN(C(=O)C2CC2)CC1 + CN(C)c1ccc(Nc2c3ccc(NC(=O)CCN4CCCC4)cc3nc3cc(NC(=O)CCN4CCCC4)ccc23)cc1 , thanks.
Marked response: 107%

Exam item: Let me know recorded viability, T/C for CC(C)(O)C1CCC(Nc2ccc3ncc(-c4cccc(C(F)(F)F)c4)n3n2)CC1 (stereo not given) + CN(C)c1ccc(Nc2c3ccc(NC(=O)CCN4CCCC4)cc3nc3cc(NC(=O)CCN4CCCC4)ccc23)cc1 , thanks.
Marked response: 102%
